- Test system: MOLT-4 leukemia
- PROCEDURE_TEXT: NCI-60 one-dose screen, 48 h (100 = growth as untreated, 0 = no growth, -100 = all killed)
- ASSAY_CONTEXT: 10 µM unless noted
The panel holds about 83,000 compounds, 20% with a hit somewhere; the sample as a whole holds those more often.
growth values, listed per item
MEASURED_PARAMETER: growth (%)

COMPOUND	TARGET_OR_TEST_SYSTEM	RECORDED_NUMBER
COc1ccc(NC(=O)Nc2ccc(-c3ccc(OC)c(OC)c3)nc2C)cc1	MOLT-4 leukemia	85.6
CN1CCN(CC(O)COc2c(Br)c(Br)c(Br)c3c2OC(C)(C)C3)CC1 (stereo unspecified)	MOLT-4 leukemia	18.3
CC(Cc1cccc(C(F)(F)F)c1)NCCOC(=O)c1ccccc1 (stereo unspecified)	MOLT-4 leukemia	96.1
S=c1[nH]nc(Cn2c3ccccc3c3ccncc32)o1	MOLT-4 leukemia	93.8
CN1CCN(Cn2nc(-c3cc(Cl)cc(Cl)c3Cl)n(/N=C/c3ccc(Cl)cc3)c2=S)CC1	MOLT-4 leukemia	59
C[C@]12CC[C@@H]3c4ccc(O)c(N)c4CC[C@H]3[C@@H]1CC[C@@H]2O	MOLT-4 leukemia	80.8
NC(=S)NNC1CCCCC1	MOLT-4 leukemia	70.9
O=C1c2ccccc2OC=C(c2ccccc2)N1CCCCN1CCCCC1	MOLT-4 leukemia	60.6
C=C1C(=O)O[C@H]2[C@H]1CC/C(COC(=O)c1ccc(Cl)nc1)=C\CC[C@@]1(C)O[C@@H]21	MOLT-4 leukemia	-28.6
Clc1ccc2c(c1)nnn1c3ncccc3c(Br)c21	MOLT-4 leukemia	115
Cc1ccc(NC(=O)CN2CCOCC2)cc1Cl	MOLT-4 leukemia	90.2
